Here, each record is paired with measured IC50 data.
tested on: AGS; assay: Cytotoxicity against human AGS cells assessed as growth inhibition after 72 hrs by MTT assay
Observable: IC50 (µM)

Compound: CC(C)=CCC/C(C)=C/C[C@@H]1C[C@]2(CC=C(C)C)C(=O)[C@@](CC=C(C)C)(C(=O)C(C(=O)c3ccc(O)c(O)c3)=C2O)[C@@]1(C)CCC=C(C)C [OBLONGIFOLIN C]
Study Target: AGS
Observable: IC50
Comparator: =
Numeric Result: 4.58

Compound: COC(=O)COc1ccc(C(=O)C2=C(O)[C@]3(CC=C(C)C)C[C@@H](C/C=C(\C)CCC=C(C)C)[C@](C)(CCC=C(C)C)[C@](CC=C(C)C)(C2=O)C3=O)cc1OCC(=O)O
Study Target: AGS
Observable: IC50
Comparator: >
Numeric Result: 20

Compound: CC(C)=CCC/C(C)=C/C[C@@H]1C[C@]2(CC=C(C)C)C(=O)[C@@](CC=C(C)C)(C(=O)C(Cc3ccc(O)c(O)c3)=C2O)[C@@]1(C)CCC=C(C)C
Study Target: AGS
Observable: IC50
Comparator: >
Numeric Result: 20

Compound: CC(=O)Oc1cc(C(=O)C2=C(O)[C@]3(CC=C(C)C)C[C@@H](C/C=C(\C)CCC=C(C)C)[C@](C)(CCC=C(C)C)[C@](CC=C(C)C)(C2=O)C3=O)ccc1O
Study Target: AGS
Observable: IC50
Comparator: =
Numeric Result: 8.09

Compound: CC(C)=CCC/C(C)=C/C[C@@H]1C[C@]2(CC=C(C)C)C(=O)[C@@](CC=C(C)C)(C(=O)C3=C2OC2C=C(O)C(=O)C=C2C3=O)[C@@]1(C)CCC=C(C)C (stereo partly specified)
Study Target: AGS
Observable: IC50
Comparator: =
Numeric Result: 7.84

Compound: CC(C)=CCC/C(C)=C/C[C@@H]1C[C@]2(CC=C(C)C)C(=O)[C@@](CC=C(C)C)(C(=O)C(OC(=O)c3ccc(O)c(O)c3)=C2O)[C@@]1(C)CCC=C(C)C
Study Target: AGS
Observable: IC50
Comparator: =
Numeric Result: 10.2
